Hi there, I'd appreciate the recorded pIC50 for every entry that follows.
Biological target: MR (Homo sapiens)
Sequence (P08235 1-984): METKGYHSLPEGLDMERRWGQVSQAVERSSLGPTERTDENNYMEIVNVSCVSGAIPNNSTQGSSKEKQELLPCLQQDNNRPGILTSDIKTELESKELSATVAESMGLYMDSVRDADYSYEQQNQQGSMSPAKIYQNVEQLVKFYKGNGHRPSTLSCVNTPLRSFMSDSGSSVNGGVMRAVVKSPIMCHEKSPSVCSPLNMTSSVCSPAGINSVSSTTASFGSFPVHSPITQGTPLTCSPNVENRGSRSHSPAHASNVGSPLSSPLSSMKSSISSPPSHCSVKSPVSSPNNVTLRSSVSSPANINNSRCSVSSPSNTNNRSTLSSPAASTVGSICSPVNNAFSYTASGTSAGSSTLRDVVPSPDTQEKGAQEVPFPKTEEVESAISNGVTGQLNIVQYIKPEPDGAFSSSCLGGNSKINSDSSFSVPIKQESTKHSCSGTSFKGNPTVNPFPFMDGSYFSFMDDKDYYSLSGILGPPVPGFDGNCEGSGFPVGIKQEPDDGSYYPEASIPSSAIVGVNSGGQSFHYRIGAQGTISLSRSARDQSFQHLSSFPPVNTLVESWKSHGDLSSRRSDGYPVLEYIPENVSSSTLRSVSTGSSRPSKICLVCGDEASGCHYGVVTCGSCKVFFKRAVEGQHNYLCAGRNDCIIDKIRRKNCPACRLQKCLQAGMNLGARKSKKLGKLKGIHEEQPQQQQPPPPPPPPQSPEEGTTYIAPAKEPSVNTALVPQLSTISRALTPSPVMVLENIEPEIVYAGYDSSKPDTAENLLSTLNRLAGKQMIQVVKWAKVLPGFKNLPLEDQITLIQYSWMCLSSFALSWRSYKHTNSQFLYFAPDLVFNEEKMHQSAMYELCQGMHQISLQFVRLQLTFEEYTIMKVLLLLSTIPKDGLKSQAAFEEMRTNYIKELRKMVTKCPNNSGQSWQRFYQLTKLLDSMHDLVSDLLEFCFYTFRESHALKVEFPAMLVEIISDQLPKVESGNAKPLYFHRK
Assay: Co-transfection assay, MR antagonist mode
pIC50: −log10 of the molar value.

The compound listed as CC12CCCN1c1cc3[nH]c(=O)c(F)c(C(F)(F)F)c3cc1CC2 (racemic) has a reported pIC50 of < 5.00

The compound listed as CC12CCCN1c1cc3nc(O)cc(C(F)(F)F)c3cc1CC2 (racemic) has a reported pIC50 of < 5.00

###

Hi there, I'd appreciate the recorded pKi for every entry that follows.
molecular target: human AR (Homo sapiens, UniProt P10275); construct: expressed in transfected cells; host or cells: CV-1 cells (African green monkey kidney fibroblasts), transient calcium phosphate transfection; test: cell-based; assay type: binding
Sequence (P10275 whole entry): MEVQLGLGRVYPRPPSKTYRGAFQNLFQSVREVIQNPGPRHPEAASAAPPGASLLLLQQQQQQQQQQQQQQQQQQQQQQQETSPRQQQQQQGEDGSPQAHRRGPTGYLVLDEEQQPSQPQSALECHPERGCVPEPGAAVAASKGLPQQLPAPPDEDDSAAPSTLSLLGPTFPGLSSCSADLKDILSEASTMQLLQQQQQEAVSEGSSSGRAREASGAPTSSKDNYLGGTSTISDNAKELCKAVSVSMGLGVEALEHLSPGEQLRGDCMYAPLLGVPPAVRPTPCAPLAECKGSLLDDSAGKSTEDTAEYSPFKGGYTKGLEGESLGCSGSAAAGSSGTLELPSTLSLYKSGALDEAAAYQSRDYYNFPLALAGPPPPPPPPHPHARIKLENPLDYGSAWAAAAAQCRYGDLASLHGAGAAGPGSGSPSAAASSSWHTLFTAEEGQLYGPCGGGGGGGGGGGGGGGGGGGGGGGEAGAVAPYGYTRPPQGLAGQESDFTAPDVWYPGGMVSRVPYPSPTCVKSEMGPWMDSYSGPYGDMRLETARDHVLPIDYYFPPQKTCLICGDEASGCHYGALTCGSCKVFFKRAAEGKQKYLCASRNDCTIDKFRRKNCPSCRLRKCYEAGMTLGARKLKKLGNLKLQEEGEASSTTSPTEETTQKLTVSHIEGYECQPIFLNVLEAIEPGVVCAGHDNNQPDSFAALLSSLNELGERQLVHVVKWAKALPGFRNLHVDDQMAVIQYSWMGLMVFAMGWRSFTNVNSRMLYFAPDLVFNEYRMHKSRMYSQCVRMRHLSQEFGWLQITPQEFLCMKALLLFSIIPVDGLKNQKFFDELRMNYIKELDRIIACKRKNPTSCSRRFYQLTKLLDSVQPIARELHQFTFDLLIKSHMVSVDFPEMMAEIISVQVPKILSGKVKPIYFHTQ
// returns pKi (minus log10 of molar concentration), number only

The observed pKi for CC1=CC(C)(C)Nc2cc3[nH]c(=O)c(F)c(C(F)(F)F)c3cc21 when tested with human AR (Homo sapiens, UniProt P10275) stands at 6.09

The observed pKi for CC1CC(C)(C)n2oc(=O)c3c4[nH]c(=O)cc(C(F)(F)F)c4cc1c32 (centres unmarked) when tested with human AR (Homo sapiens, UniProt P10275) stands at 7.77

The observed pKi for Cn1c(=O)c(F)c(C(F)(F)F)c2cc3c(cc21)N1CCCC1(C)CC3 (racemic) when tested with human AR (Homo sapiens, UniProt P10275) stands at 6.80

The observed pKi for CC1(C)CCc2cc3c(C(F)(F)F)c(F)c(=O)[nH]c3cc2N1 when tested with human AR (Homo sapiens, UniProt P10275) stands at 7.59

The observed pKi for CC12CCCN1c1cc3[nH]c(=O)c(F)c(C(F)(F)F)c3cc1CC2 (racemic) when tested with human AR (Homo sapiens, UniProt P10275) stands at 7.11
